Reported TGI values for the following compounds.
Test system: TK-10 renal
Assay: NCI tumour cell line growth inhibition, 48 h
Measurement Name: TGI

INSERT INTO results (compound, readout_value) VALUES
  ('CCNc1ccc2c(c1)C(=O)N(OS(C)(=O)=O)C2=O', '> 100 µM'),
  ('O=Cc1c2c(cc3c1CC1(C3)Cc3cc4c(c(C=O)c3C1)CCC4)CCC2', '98.8 µM'),
  ('CC1=NN(c2ccccc2)C(=O)/C1=C\c1c(C)[nH]n(-c2ccccc2)c1=O', '> 100 µM'),
  ('CC(C)(C)N=C1C(=O)C2(C)CCC1C2(C)C (stereo unspecified)', '> 100 µM'),
  ('CCN(CC)CC[n+]1ccc2c(C)c3[nH]c4ccccc4c3c(C)c2c1', '25.3 µM'),
  ('C=C1c2nc3ccccc3n2C=C(c2ccccc2)N1c1ccc(C)cc1', '> 100 µM'),
  ('CC(NC1CCCC[C@@H]1O)c1ccccc1 (stereo partly specified)', '> 100 µM'),
  ('Cc1cc(C)nc(NC(=O)COc2ccc(Cl)cc2)c1', '> 100 µM'),
  ('CC(=O)c1nc(-c2ccc(C[C@@H](CNC(=O)CN(C)C)NC(=O)c3ccc(OC(C)C)c(Cl)c3)cc2)cn1C', '25 µM'),
  ('COC(=O)C1=C(O)c2cc(OC)c(OC)c(OC)c2C(c2ccc3c(c2)OCO3)[C@@H]1C(=O)OC (stereo partly specified)', '> 100 µM'),
  ('CSC(=S)NCc1cn(C)c2ccccc12', '> 100 µM'),
  ('Cc1cc(C)c(S(=O)(=O)N(CCCCCN)OCCCN)c(C)c1', '30.8 µM'),
  ('C#CCn1c(I)cc2c(c1=O)COC(=O)[C@]2(O)CC', '> 100 µM'),
  ('COC(=O)CCC(NC(=S)N/N=C(\C)c1cccs1)C(=O)OC (stereo unspecified)', '> 100 µM'),
  ('COc1c2c(c(O)c3c4c(c(C)cc13)C1OC3(C(OC)OC5CC(C)(O)C(OC6CC(C)(O)C(O)C(C)O6)C(C)O5)OC1C(OC)(O4)C31CO1)C(=O)C(O)CC2OC1CC(C)(O)C(OC(C)=O)C(C)O1 (stereo unspecified)', '18.6 µM'),
  ('COC(=O)c1c(CC(=O)OC(C)C)cc2n(c1=O)Cc1c-2nc2ccccc2c1OC', '> 100 µM'),
  ('COc1cccc(C=NC23CC4CC(CC(C4)C2)C3)c1', '> 100 µM'),
  ('CC(C)=CCNc1ncnc2c1ncn2CCC(=O)O', '> 100 µM'),
  ('Nc1ccnc2c1ncn2[C@H]1C[C@H](O)[C@@H](CO)O1', '> 100 µM'),
  ('O=C(NNC(=O)c1ccncc1)C(=O)Nc1cc(Cl)c(Cl)cc1Cl', '> 100 µM'),
  ('C[C@]12CC[C@H]3[C@@H](CC=C4C[C@@H](O)CC[C@@]43C)[C@@H]1C/C(=C\c1ccc([N+](=O)[O-])cc1)[C@@H]2O', '55.2 µM'),
  ('N#Cc1nc(CN2C(=O)c3ccccc3C2=O)oc1N', '> 100 µM'),
  ('CC(C)(O)c1cc(Nc2cc(Oc3cn(C4CC4)nc3C3CCOCC3)ccn2)ccn1', '> 100 µM'),
  ('C=C1C(=O)O[C@@H]2C[C@@H](C)[C@@H]3C=CC(=O)[C@@]3(C)[C@@H](OC(=O)CCCC(=O)O[C@H]3[C@@H]4C(=C)C(=O)O[C@@H]4C[C@@H](C)[C@@H]4C=CC(=O)[C@]43C)[C@H]12', '0.296 µM'),
  ('COc1ccc(-c2c(/C=N/OCC(=O)O)c3sc4ccccc4n3c2/C=N/OCC(=O)O)cc1', '> 50 µM'),
  ('CC(C)C(Br)C(=O)NCC(=O)O (stereo unspecified)', '> 100 µM'),
  ('COC(OC)c1cccnc1C', '> 100 µM'),
  ('CCOC(=O)/C=C/c1ccc([N+](=O)[O-])o1', '16.3 µM'),
  ('CCC1OC2(C)CC(C#N)(C#N)C1(C#N)C(=N)O2 (stereo unspecified)', '> 100 µM'),
  ('CCOC(=O)c1sc(NC(=O)COc2ccc(/C=C3\CCc4cc(OC)ccc4C3=O)cc2)nc1C', '21.4 µM'),
  ('C=C1C(=O)OC2C[C@@]3(C)CCCC(=C)C3CC12 (stereo partly specified)', '23.5 µM'),
  ('CC1(C)Cc2ccccc2C(C)(Cl)C(=O)N1 (stereo unspecified)', '> 10 µM'),
  ('COC1(C)CCC(OS(C)(=O)=O)CO1 (stereo unspecified)', '> 100 µM'),
  ('COc1c(OC2OC(C)C(O)C(O)C2O)c(OC)c2oc(-c3ccc(O)cc3)cc(=O)c2c1O (stereo unspecified)', '> 100 µM'),
  ('Cc1oc(N)c(S(=O)(=O)/C(C#N)=C/c2ccccc2[N+](=O)[O-])c1C', '> 100 µM'),
  ('COC(=O)CCCc1nc2ccccc2nc1N=Nc1ccccc1', '> 100 µM'),
  ('BrCc1ccc2ccc3ccc(CBr)nc3c2n1', '5.72 µM'),
  ('COc1ccc(-c2csc3c2[N+]2(C)C=CC=C2C3N2CCCC2)cc1 (stereo unspecified)', '> 100 µM'),
  ('C=CCN1C(=O)C[C@H](Cc2ccccc2)NC(=O)C[C@H](Cc2ccccc2)N(CC=C)C(=O)C[C@H](Cc2ccccc2)NC(=O)C[C@@H]1Cc1ccccc1', '> 100 µM'),
  ('COc1ccc(C2C3=C(COC3=O)Oc3cc4c(cc32)OCO4)cc1OC (stereo unspecified)', '> 100 µM'),
  ('CSCc1ncc(-c2ccc(C(F)(F)F)cc2)c(NC2CCCCCC2)n1', '> 10 µM');

###

// TGI lookup, one value per entry
Test system: SF-539 CNS
Assay: NCI tumour cell line growth inhibition, 48 h
Measurement Name: TGI (µM)

INSERT INTO results (compound, measurement_unit, rel, readout_value) VALUES
  ('c1ccc(N2CCN(CCN3CCc4c([nH]c5ccccc45)C3c3cccnc3)CC2)cc1 (stereo not given)', 'µM', '>', 100),
  ('CCOC(=O)NN1C(=O)C(=P(c2ccccc2)(c2ccccc2)c2ccccc2)C(C(=O)OC)=C1C', 'µM', '>', 100),
  ('CCN(CC)c1ccc(/C=N/N=C(N)N)cc1', 'µM', '=', 30.5),
  ('C[C@]12CC[C@H]3[C@@H](CC=C4C[C@@H](O)CC[C@@]43C)[C@@H]1C/C(=C\c1ccc([N+](=O)[O-])cc1)[C@@H]2O', 'µM', '=', 34.5),
  ('CCOC(=O)/C=C(/C(=O)OCC)n1cc(C)c(=O)n(Cc2cn(CCCCOC(C)=O)nn2)c1=O', 'µM', '=', 19.1),
  ('CN1CCC(O)(OC(=O)C(c2ccccc2)C2(O)CCCC2)CC1 (stereo not given)', 'µM', '>', 100),
  ('O=C(NC1=C(Cl)C(=O)c2ccccc2C1=O)C(=O)c1c(O)c2ccccc2oc1=O', 'µM', '=', 11.1),
  ('CN(CCOc1ccc(NS(C)(=O)=O)cc1)CCc1ccc(NS(C)(=O)=O)cc1', 'µM', '>', 100),
  ('COC(=O)C1=C(O)c2cc(OC)c(OC)c(OC)c2C(c2ccc3c(c2)OCO3)[C@@H]1C(=O)OC (stereo not given in full)', 'µM', '=', 5.52),
  ('Cc1c(C(=O)O)sc2nc[nH]c(=O)c12', 'µM', '>', 100);

###

Documented TGI across a set of compounds
Tested on: SF-539 CNS
Experiment: NCI tumour cell line growth inhibition, 48 h
Measurement Name: TGI

INSERT INTO measurements (compound, readout_value) VALUES
  ('COc1ccc2c(c1)[n+](=O)c(/C=C/C(=O)c1cc(OC)c(OC)c(OC)c1)c(C)n2[O-]', '38.8 µM'),
  ('COC(=O)CCCc1nc2ccccc2nc1N=Nc1ccccc1', '> 100 µM'),
  ('CCOP(=O)(OCC)C(c1ccccc1)N(C(=O)NC(F)(F)F)c1ccc(C)cc1 (stereo unspecified)', '> 100 µM'),
  ('Cc1oc(N)c(S(=O)(=O)/C(C#N)=C/c2ccccc2[N+](=O)[O-])c1C', '61.4 µM'),
  ('Nc1ccccc1SC(/C=C/NNC1=NC(c2ccccc2)C(c2ccccc2)=NN1)c1ccccc1 (stereo unspecified)', '25.9 µM'),
  ('Cc1ccc(N2Cc3c(ccc4ccccc34)OP2(=S)N2CCCC2)cc1 (stereo unspecified)', '> 100 µM'),
  ('C/C(=N\Nc1nc2cc(F)ccc2s1)c1ccccn1', '> 23.4 µM'),
  ('COc1ccc(/C=C/C(=O)c2cc(CN(C)C)c(O)c(CN(C)C)c2)cc1', '> 100 µM'),
  ('CC(C)=CCNc1ncnc2c1ncn2CCC(=O)O', '> 100 µM'),
  ('Cc1c2oc(=O)c(C#N)cc2c2ccccn12', '> 100 µM'),
  ('CC(=O)N1CCOC12N=NC(C)(C)O2 (stereo unspecified)', '> 100 µM');
